These data points were gathered from paper PMC9482650.

- study target: HTRA1, Q92743
- Sequence (Q92743 360-477): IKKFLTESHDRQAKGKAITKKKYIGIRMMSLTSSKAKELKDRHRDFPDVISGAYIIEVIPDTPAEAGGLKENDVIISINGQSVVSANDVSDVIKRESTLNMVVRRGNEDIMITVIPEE
- assay procedure: holdup assay
- Design: key: below the threshold = too weak to quantify, mostly under pKd 3.1 to 4
- measurement context: plain residues with an end cap or a label only (N-terminal biotin on a linker: ado-ado)

binder: QQGLLPHSSC [TYRO3, Q06418]
pKd: below the threshold

binder: YAEKRMLTEV [KCNA6, P17658]
pKd: 3.91

binder: IKLETKKTKL [SLC15A2, Q16348]
pKd: below the threshold

binder: EAVTVESTSL [SLC22A11, Q9NSA0]
pKd: 3.92

binder: TKDKVQETQI [LRRC4, Q9HBW1]
pKd: below the threshold

binder: PAALPESTHM [SLC9A3, P48764]
pKd: below the threshold

binder: LPPPESESKV [KCNJ9, Q92806]
pKd: below the threshold
